- assay.protocol: Apigenin solubility in NaOH solutions
- Format: physicochemical
- assay.context: sodium hydroxide solution, aqueous buffer, NaOH Molarity 1.015 moles/liter
readout: solubility

solubility for O=c1cc(-c2ccc(O)cc2)oc2cc(O)cc(O)c12 is > 200 mg/mL

* * *

- assay.protocol: Apigenin solubility in NaOH solutions
- Format: physicochemical
- assay.context: sodium hydroxide solution, aqueous buffer, NaOH Molarity 0.75 moles/liter
readout: solubility

solubility for O=c1cc(-c2ccc(O)cc2)oc2cc(O)cc(O)c12 is > 150 mg/mL
